# measurement.target: FGFR2 (Homo sapiens (Human))
# Sequence (P21802 22-821): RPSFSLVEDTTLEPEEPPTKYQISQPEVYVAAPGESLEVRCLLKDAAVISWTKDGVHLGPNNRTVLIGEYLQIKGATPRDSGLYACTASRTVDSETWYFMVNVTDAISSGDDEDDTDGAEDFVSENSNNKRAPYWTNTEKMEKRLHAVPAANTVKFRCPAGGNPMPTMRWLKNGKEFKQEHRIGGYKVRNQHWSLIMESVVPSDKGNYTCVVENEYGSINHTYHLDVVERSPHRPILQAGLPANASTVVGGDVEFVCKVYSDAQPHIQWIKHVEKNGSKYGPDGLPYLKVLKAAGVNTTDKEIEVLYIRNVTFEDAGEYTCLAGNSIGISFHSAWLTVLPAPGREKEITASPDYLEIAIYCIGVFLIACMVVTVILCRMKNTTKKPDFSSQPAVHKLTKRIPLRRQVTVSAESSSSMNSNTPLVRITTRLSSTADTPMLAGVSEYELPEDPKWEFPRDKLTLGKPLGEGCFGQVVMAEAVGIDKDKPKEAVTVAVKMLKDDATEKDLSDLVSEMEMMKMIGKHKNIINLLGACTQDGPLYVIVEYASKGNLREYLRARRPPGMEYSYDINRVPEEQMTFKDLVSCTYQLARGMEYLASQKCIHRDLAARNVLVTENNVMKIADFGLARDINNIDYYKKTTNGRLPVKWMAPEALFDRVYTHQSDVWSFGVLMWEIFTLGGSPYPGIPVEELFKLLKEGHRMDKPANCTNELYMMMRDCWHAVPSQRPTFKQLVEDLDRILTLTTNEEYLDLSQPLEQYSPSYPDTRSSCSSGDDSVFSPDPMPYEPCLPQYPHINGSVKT
# experiment.notes: Kinase assay, binding constants (Kd), kinase-tagged T7 phage, qPCR
Kd values, listed per item

A selection of reference data follows.
>  <compound>
COc1cc2[nH]nc(-c3cnc(N4CC(O)C4)c(C#N)c3)c2cc1O[C@H](C)c1c(Cl)cncc1Cl

>  <test.value>
20 to 100 nM

$$$$
>  <compound>
CCOC(=O)N1CC2(C1)CN(c1ncc(-c3n[nH]c4ccc(O[C@H](C)c5c(C)cnnc5C)cc34)cn1)C2

>  <test.value>
20 to 100 nM

$$$$
>  <compound>
CC(C)N1CC[C@@H](n2cc(-c3n[nH]c4ccc(O[C@H](C)c5c(Cl)cncc5Cl)cc34)cn2)C1

>  <test.value>
1 to 20 nM

$$$$
>  <compound>
C[C@@H](Oc1ccc2[nH]nc(-c3ccc(N4CC5(CCN(S(C)(=O)=O)CC5)C4)nc3)c2c1)c1c(Cl)cncc1Cl

>  <test.value>
20 to 100 nM

$$$$
>  <compound>
C[C@@H](Oc1ccc2[nH]nc(-c3cnc(N4CC5(CCNC5)C4)nc3)c2c1)c1c(Cl)cncc1Cl

>  <test.value>
20 to 100 nM

$$$$
>  <compound>
Cc1cc(-c2n[nH]c3ccc(O[C@H](C)c4c(C)cnnc4C)cc23)cnc1N1CCN2C(=O)NCC2C1 (stereo partly shown)

>  <test.value>
1 to 20 nM

$$$$

Which Kd is listed for "Cc1cnnc(C)c1[C@@H](C)Oc1ccc2[nH]nc(-c3ccc(N4CCN5C[C@H](O)C[C@H]5C4)nc3)c2c1" ?
1 to 20 nM

----------
# measurement.target: FGFR3-BAIAP2L1 Ba/F3 cells (Homo sapiens)
# Sequence (P22607 23-806 limits assumed, change not shown): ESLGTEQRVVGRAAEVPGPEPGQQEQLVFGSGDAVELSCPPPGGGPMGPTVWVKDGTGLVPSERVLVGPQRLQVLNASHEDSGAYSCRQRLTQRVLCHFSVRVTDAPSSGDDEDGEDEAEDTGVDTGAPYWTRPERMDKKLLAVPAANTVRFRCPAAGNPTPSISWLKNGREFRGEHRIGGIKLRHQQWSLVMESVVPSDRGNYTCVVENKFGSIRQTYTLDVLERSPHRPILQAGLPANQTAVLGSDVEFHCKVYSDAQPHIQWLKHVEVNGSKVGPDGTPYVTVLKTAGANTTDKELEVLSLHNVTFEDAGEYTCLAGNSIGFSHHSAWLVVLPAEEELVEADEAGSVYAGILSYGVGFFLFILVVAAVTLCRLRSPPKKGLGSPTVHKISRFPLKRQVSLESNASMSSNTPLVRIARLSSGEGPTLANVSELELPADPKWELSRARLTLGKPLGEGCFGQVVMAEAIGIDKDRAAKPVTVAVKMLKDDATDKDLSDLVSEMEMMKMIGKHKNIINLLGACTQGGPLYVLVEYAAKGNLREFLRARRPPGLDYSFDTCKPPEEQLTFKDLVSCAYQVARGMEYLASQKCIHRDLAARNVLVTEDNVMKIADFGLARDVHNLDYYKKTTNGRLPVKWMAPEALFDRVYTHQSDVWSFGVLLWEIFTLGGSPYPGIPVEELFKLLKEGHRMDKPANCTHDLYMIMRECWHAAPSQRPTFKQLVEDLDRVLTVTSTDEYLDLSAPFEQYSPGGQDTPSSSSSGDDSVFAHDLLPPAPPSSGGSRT
# experiment.notes: Ba/F3 cell viability assay (CellTiter-Glo 2.0), FGFR3-BAIAP2L1 Ba/F3
# Format: cell-based
# run.conditions: FGFR3 > FGFR1 selectivity ratio in Ba/F3 FGFR fusion cell based assays
reported.metric: Ba/F3 FGFR1/FGFR3 Selectivity
Respond numerically, and do not add a unit to the figure.

Reference set, count: 4
>  <compound>
C[C@@H](Oc1ccc2[nH]nc(-c3cnc(N4CCC5(CC4)CNC(=O)N5)nc3)c2c1)c1c(Cl)cncc1Cl [Example 53]

>  <test.value>
11

$$$$
>  <compound>
C[C@@H](Oc1ccc2[nH]nc(-c3ccc(N4CCN(C(=O)N5CCN(C)CC5)CC4)nc3)c2c1)c1c(Cl)cncc1Cl [Example 4]

>  <test.value>
29

$$$$
>  <compound>
COC(=O)N1CCN(c2ccc(-c3n[nH]c4ccc(O[C@H](C)c5c(Cl)cncc5Cl)cc34)cn2)CC1 [Example 7]

>  <test.value>
15

$$$$
>  <compound>
Cc1ncc(Cl)c([C@@H](C)Oc2ccc3[nH]nc(-c4cnn(C5CCN(C6COC6)CC5)c4)c3c2)c1Cl [Example 94]

>  <test.value>
11

$$$$

If you can, please state the reported Ba/F3 FGFR1/FGFR3 Selectivity value of C[C@@H](Oc1ccc2[nH]nc(-c3cnc(N4CCC5(CCCN5)CC4)nc3)c2c1)c1c(Cl)cncc1Cl [Example 56] .
5

I would be grateful if you could share the reported Ba/F3 FGFR1/FGFR3 Selectivity for C[C@@H](Oc1ccc2[nH]nc(-c3cnn(C4CCN(CCO)CC4)c3)c2c1)c1c(Cl)cncc1Cl [Example 79] .
14

Given Cc1cnnc(C)c1[C@@H](C)Oc1ccc2[nH]nc(-c3ccc(N4CC5(C4)CN(S(C)(=O)=O)C5)nc3)c2c1 [Example 148] , state its recorded Ba/F3 FGFR1/FGFR3 Selectivity.
16
